B1: Azoarcus group I ribozyme (parent)
chain: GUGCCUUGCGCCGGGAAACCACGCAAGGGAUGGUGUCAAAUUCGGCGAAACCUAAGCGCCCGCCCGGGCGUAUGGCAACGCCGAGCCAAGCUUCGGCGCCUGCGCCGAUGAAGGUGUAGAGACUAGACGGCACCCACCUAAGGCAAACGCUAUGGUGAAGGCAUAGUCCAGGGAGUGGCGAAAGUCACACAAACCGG

variants of: B1; experiment: reverse-splicing fitness (ratio to wild type); higher = more active; in vitro selection; Mg2+ level not given
Classes are defined on reverse-splicing fitness with ranges label 0: < 0.007; label 1: ≥ 0.007 and < 0.01; label 2: ≥ 0.01

INSERT INTO assay_data (mutation_annotation, classification) VALUES
  ('C82U A111U C150G C169G U176C', 'label 0'),
  ('C82G A111U A145C C169G U176G', 'label 0'),
  ('C82A A111G A145G C150G C169G', 'label 1'),
  ('A120G A145C C150U C169G U176G', 'label 1'),
  ('C82A A111U A120G A145U', 'label 2'),
  ('C82A A120C C150A C169U', 'label 2'),
  ('C82A A111G A120U A145U C150U C169G U176C', 'label 0'),
  ('C82A A111G A145U C150A C169A U176A', 'label 2'),
  ('A120C C150U C169U U176A', 'label 2'),
  ('C82A A111C A145U C150G C169A U176C', 'label 2'),
  ('C82G A111G A120C A145C C150G C169G', 'label 1'),
  ('C82G A111U A120C A145C C150U C169A U176G', 'label 0'),
  ('C82U A145U C150G C169G U176G', 'label 0'),
  ('C82A A111U A120C C150U C169G U176G', 'label 1'),
  ('C82A A120G A145C C150A C169G U176G', 'label 0'),
  ('A111C A120U C150U C169G', 'label 2');
